# assayInfo: The drug is tested on Z-012 corresponding to metagenome with ENA study accession number: PRJEB37062 and ENA sample accession number: ERS12561812 for biotransformation under anaerobic condition. The drug concentrations were measured over 9 timepoints collected between 0 and 24 hours of incubation by liquid-chromatography-coupled mass spectrometry (LC–MS); note: call rule not given here
# conditionsUsed: 2 µM
experimentalEndpoint: Bacterial Biotransformation

NS(=O)(=O)c1cc2c(cc1Cl)N=C(CSCc1ccccc1)NS2(=O)=O [BENZTHIAZIDE]; Compound NOT metabolized
Cc1ccc(-c2cc(C(F)(F)F)nn2-c2ccc(S(N)(=O)=O)cc2)cc1; Compound NOT metabolized
CCCCCCOC(=O)/N=C(/N)c1ccc(NCc2nc3cc(C(=O)N(CCC(=O)OCC)c4ccccn4)ccc3n2C)cc1.CS(=O)(=O)O [DABIGATRAN ETEXILATE MESYLATE]; Compound NOT metabolized
CCN(CC)CCNC(=O)c1cc(Cl)c(N)cc1OC [METOCLOPRAMIDE]; Compound NOT metabolized
CC(=O)OCC(=O)[C@@]1(O)[C@@H](C)C[C@H]2[C@@H]3CCC4=CC(=O)C=C[C@]4(C)[C@@]3(F)[C@@H](O)C[C@@]21C [BETAMETHASONE ACETATE]; Compound NOT metabolized

Batch of 3 molecules: report Bacterial Biotransformation for each.
1. CC[C@H](C)C(=O)O[C@H]1C[C@@H](C)C=C2C=C[C@H](C)[C@H](CC[C@@H]3C[C@@H](O)CC(=O)O3)[C@H]21
2. CC(C)N(CCC(C(N)=O)(c1ccccc1)c1ccccn1)C(C)C.O=P(O)(O)O (configuration not stated) [DISOPYRAMIDE PHOSPHATE]
3. Br.CN(C)CCCC1(c2ccc(F)cc2)OCc2cc(C#N)ccc21 (configuration not stated) [CITALOPRAM HYDROBROMIDE]

1. Compound NOT metabolized
2. Compound NOT metabolized
3. Compound NOT metabolized

Hi there! I need Bacterial Biotransformation for each item below, if you can.
1. OC(Cn1cncn1)(Cn1cncn1)c1ccc(F)cc1F
2. COc1ccc2[nH]c([S+]([O-])Cc3ncc(C)c(OC)c3C)nc2c1 (configuration not stated)
3. Cc1nc2n(c(=O)c1CCN1CCC(c3noc4cc(F)ccc34)CC1)CCCC2
4. Clc1ccc(Cn2c(CN3CCCC3)nc3ccccc32)cc1
5. CCN(CC)CCOC(=O)C(Cc1cccc2ccccc12)CC1CCCO1.O=C(O)C(=O)O (configuration not stated) [NAFRONYL OXALATE]
6. CNC(=C[N+](=O)[O-])NCCSCc1ccc(CN(C)C)o1
7. O=P(O)(O)O.c1ccc(CN(CC2=NCCN2)c2ccccc2)cc1 [ANTAZOLINE PHOSPHATE]
8. COc1c2occc2cc2ccc(=O)oc12

["Compound NOT metabolized", "Compound NOT metabolized", "Compound metabolized", "Compound NOT metabolized", "Compound metabolized", "Compound metabolized", "Compound NOT metabolized", "Compound metabolized"]

Please give the measured Bacterial Biotransformation for this molecule: O=C(O)COCCN1CCN(C(c2ccccc2)c2ccc(Cl)cc2)CC1 (configuration not stated)
Compound metabolized

Origin of the recorded values: ChEMBL document CHEMBL5724914
